- measured.on: UniProt P07332
- Sequence (P07332 whole entry): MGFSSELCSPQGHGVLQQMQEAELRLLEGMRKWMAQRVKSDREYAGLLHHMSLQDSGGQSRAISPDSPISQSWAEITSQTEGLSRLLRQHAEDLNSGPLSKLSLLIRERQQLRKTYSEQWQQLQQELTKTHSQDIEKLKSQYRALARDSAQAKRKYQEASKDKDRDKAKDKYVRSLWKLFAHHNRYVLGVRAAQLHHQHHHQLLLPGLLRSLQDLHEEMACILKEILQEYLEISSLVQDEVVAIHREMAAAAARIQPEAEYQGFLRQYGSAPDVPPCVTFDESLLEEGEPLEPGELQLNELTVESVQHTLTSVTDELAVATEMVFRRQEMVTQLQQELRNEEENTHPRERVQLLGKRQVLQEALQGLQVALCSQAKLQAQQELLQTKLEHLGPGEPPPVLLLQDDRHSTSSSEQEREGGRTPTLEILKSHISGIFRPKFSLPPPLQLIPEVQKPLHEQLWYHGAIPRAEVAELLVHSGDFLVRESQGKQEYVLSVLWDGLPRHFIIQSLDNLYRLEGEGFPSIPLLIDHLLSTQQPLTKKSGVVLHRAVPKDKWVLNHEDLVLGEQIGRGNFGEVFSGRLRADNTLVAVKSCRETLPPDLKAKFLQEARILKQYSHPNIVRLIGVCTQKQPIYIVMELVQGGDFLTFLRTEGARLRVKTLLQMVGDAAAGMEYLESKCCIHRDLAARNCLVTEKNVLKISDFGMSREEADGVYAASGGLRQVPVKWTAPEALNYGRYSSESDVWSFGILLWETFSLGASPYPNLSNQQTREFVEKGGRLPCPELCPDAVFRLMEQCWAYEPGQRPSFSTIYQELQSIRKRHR
- assay.text: KinaseProfiler off-target kinase profiling
- Format: biochemical
- reported.conditions: 10 μM, ATP near Km

molecule | measured.on | Avg. POC (POC)
COCc1ccc2c(c1)C(NC(=O)Nc1c(C)c(-c3cnn(C)c3)nn1-c1ccccc1)COC2 (stereo not shown) | UniProt P07332 | 112.5
Cc1c(-c2cnn(C)c2)nn(-c2ccccc2)c1NC(=O)NC1CCOc2cc(F)ccc21 (stereo not shown) | UniProt P07332 | 110
Cc1c(-c2ccc(=O)n(C)c2)nn(-c2ccccc2)c1NC(=O)NC1CN(CC(F)(F)F)Cc2ccccc21 (stereo not shown) | UniProt P07332 | 100.5
Cc1c(-c2cnn(C)c2)nn(-c2ccccc2)c1NC(=O)N[C@H]1CCCc2ccccc21 | UniProt P07332 | 129.5
